- TARGET_DESC: Insulin-like growth factor 1 receptor (Homo sapiens)
- Sequence (P08069 31-736 limits assumed): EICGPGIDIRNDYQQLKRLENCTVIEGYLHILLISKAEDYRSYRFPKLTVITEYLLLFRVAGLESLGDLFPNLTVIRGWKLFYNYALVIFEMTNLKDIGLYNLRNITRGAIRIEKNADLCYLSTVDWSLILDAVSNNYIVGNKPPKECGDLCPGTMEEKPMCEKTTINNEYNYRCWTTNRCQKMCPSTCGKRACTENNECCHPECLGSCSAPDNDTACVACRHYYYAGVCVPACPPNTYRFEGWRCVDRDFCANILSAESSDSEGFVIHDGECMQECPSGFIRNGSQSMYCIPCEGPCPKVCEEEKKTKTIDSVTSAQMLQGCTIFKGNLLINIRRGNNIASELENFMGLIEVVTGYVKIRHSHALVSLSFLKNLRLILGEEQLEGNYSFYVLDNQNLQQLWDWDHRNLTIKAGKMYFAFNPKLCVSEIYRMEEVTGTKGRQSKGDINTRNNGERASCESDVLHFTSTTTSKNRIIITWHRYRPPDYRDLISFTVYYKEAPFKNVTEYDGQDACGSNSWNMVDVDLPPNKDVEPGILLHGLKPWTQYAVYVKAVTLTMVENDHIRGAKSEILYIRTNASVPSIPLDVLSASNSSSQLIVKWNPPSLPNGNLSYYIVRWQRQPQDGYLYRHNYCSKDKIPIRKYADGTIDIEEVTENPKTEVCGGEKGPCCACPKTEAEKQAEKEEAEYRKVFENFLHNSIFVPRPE
- Sequence (P08069 741-1367 limits assumed): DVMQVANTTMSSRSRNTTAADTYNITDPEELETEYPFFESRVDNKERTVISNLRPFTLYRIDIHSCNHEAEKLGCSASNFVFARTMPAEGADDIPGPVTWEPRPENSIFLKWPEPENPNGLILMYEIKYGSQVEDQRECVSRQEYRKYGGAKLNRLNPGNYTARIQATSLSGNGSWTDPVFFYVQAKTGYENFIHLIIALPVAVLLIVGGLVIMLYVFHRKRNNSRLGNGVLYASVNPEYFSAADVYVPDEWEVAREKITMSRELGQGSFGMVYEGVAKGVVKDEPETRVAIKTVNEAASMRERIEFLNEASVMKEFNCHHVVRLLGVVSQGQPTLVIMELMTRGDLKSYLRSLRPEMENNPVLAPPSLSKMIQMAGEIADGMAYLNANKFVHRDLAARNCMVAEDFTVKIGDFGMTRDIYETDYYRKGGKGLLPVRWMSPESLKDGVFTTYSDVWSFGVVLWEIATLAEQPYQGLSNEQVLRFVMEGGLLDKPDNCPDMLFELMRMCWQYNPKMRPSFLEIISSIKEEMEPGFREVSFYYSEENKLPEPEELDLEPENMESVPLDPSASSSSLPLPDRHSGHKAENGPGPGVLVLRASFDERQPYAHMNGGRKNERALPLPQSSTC
- PROTOCOL_DESCRIPTION: Inhibition IGF1R phosphorylation in human MiaPaCa2 cells
- Format: cell-based
Reported values of pIC50 for individual entries
Hey, just a heads up that pIC50 is the negative log base 10 of the concentration in molar.

Consider the following illustrative entries.
COMPOUND_SMILES: Cc1cccc(Cc2nc3ccc(-c4nn([C@H]5CC[C@H](N6CCOCC6)CC5)c5ncnc(N)c45)cc3[nH]2)c1
REPORTED: 6.57
//
COMPOUND_SMILES: Nc1ncnc2c1c(-c1ccc3[nH]c(Cc4ccccc4Br)nc3c1)nn2[C@H]1CC[C@H](N2CCOCC2)CC1
REPORTED: 7.19
//
COMPOUND_SMILES: Nc1ncnc2c1c(-c1ccc3nc(Cc4ccc5ccccc5c4)[nH]c3c1)nn2[C@H]1CC[C@H](N2CCOCC2)CC1
REPORTED: 5.63
//
COMPOUND_SMILES: Nc1ncnc2c1c(-c1ccc3nc(Cc4ccccc4)[nH]c3c1)nn2[C@H]1CC[C@H](N2CCOCC2)CC1
REPORTED: 7.03
//
COMPOUND_SMILES: Cc1ccc(Cc2nc3ccc(-c4nn([C@H]5CC[C@H](N6CCOCC6)CC5)c5ncnc(N)c45)cc3[nH]2)cc1
REPORTED: 6.59

// returns reported pIC50 for input Nc1ncnc2c1c(-c1ccc3[nH]c(Cc4c(F)cccc4Cl)nc3c1)nn2[C@H]1CC[C@H](N2CCOCC2)CC1
6.95

Note, next up: Nc1ncnc2c1c(-c1ccc3nc(Cc4ccc(Cl)cc4)[nH]c3c1)nn2[C@H]1CC[C@H](N2CCOCC2)CC1
6.20

Please answer likewise for Nc1ncnc2c1c(-c1ccc3[nH]c(Cc4c(Cl)cccc4Cl)nc3c1)nn2[C@H]1CC[C@H](N2CCOCC2)CC1
6.60
